System: NLK
DETAILS: concentration: 1 μM, replicates: in singlicate; n = 1;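 also: KINOMEscan kinase panel screen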
This section presents molecules with their documented %Inh values.
Kindly answer with a numeric value in %, unit omitted.

# count of solved cases: 3
O=C1Cc2cc(Nc3nc(NCc4cccc(S(=O)(=O)C(F)(F)F)c4)ncc3C(F)(F)F)ccc2N1 | 4
Fc1ccc(-c2ncn(CCCN3CCOCC3)c2-c2ccccn2)cc1 [SB-211742] | 0
O=C(NOCC1CC1)c1ccc(F)c(F)c1Nc1ccc(I)cc1Cl | 0

What %Inh appears in the records for this molecule with NLK? O=c1cc(N2CCOCC2)nc2n(Cc3cccc(C(F)(F)F)c3)ccn12 [GSK2297543] 32

What %Inh appears in the records for this molecule with NLK? c1ccc(-c2cc(-c3c[nH]nc3-c3ccccn3)ccn2)cc1 [GW576604] 44

====

Tested on: PIM1
DETAILS: concentration: 1 μM, replicates: in singlicate; n = 1
This section presents compounds with their documented %Inh values.
Kindly answer with a numeric value in %, unit omitted.

# count of solved cases: 6
COCCNC(=O)c1ccc(-c2cc(C(=O)NC3CC3)cc(F)c2C)cc1 | 15
COc1cc2c(cc1OC[C@@H](O)CO)ncc1c3ccc(C#N)cc3[nH]c21 | 0
CN(C1=C(c2ccccc2)C(=O)NC1=O)c1ccccc1 | 19
[2H]C([2H])(c1cccc(C(F)(F)F)c1C)n1ccn2c(=O)nc(N3CCOCC3)cc12 | 0
N#Cc1c(N2CCOCC2)sc(-c2ccn[nH]2)c1-c1ccc(Cl)cc1 | 18
O=C(NCCCN1CCOCC1)c1cccc(Nc2nccc(Nc3ccc(Oc4ccccc4)cc3)n2)c1 | 22

What %Inh appears in the records for this compound with PIM1? Cc1cccc(Cn2ccn3c(=O)cc(N4CCOCC4)nc23)c1 29

What %Inh appears in the records for this compound with PIM1? Cl.Oc1cccc(Nc2ccnc3cc(-c4ccncc4)ccc23)c1 28

What %Inh appears in the records for this compound with PIM1? c1ccc(-c2cc(-c3c[nH]nc3-c3ccccn3)ccn2)cc1 0

What %Inh appears in the records for this compound with PIM1? CC(C)(C)n1cnc2c(N)ncnc21 0

====

Test system: MST1
Construct: gene STK4
DETAILS: concentration: 1 μM, replicates: in singlicate; n = 1
PROPERTY LABEL: %Inh (%)
Kindly answer with a numeric value in %, unit omitted.

CN1c2ccc(NCc3ccc(F)cc3)cc2-c2c(cnn2C)S1(=O)=O | 0
Cn1ccc2ncnc(Oc3ccc(NC(=O)Nc4ccncc4)c(Cl)c3)c21 | 0
O=c1cc(N2CCOCC2)nc2n(Cc3cccc(Cl)c3Cl)c(C3CC3)nn12 [GSK2358994] | 0
O=c1cc(N2CCOCC2)nc2n(Cc3cccc(F)c3)ccn12 [GSK2297430] | 23
Cc1cn2c(=O)cc(N3CCOCC3)nc2n1Cc1cccc(Cl)c1Cl [GSK2334006] | 14

// %Inh lookup, key: c1ccc(-c2cc(-c3c[nH]nc3-c3ccccn3)ccn2)cc1 [GW576604] 0

// %Inh lookup, key: COc1ccc(Nc2ncc(C#N)c(Nc3ccccc3C(N)=O)n2)cc1N1CCN(C)CC1.Cl [GSK1558669] 98.3

// %Inh lookup, key: COc1ccc(Nc2nccc(N3CCC(NC(=O)Nc4cc(C)ccc4C)C3)n2)cc1 (stereo not drawn) [GSK1379741] 0

// %Inh lookup, key: NCC(NC(=O)c1cc(-c2cn[nH]c2)c(-c2ccnc3[nH]ccc23)s1)c1ccccc1.O=C(O)C(F)(F)F.O=C(O)C(F)(F)F (stereo not drawn) [GSK1325775] 0

====

Test system: TNIK
DETAILS: concentration: 1 μM, replicates: in singlicate; n = 1
PROPERTY LABEL: %Inh (%)
Kindly answer with a numeric value in %, unit omitted.

COc1cc2c(cc1OCCN1CCN(C)CC1)ncc1c3ccc(C#N)cc3[nH]c21 | 91
NS(=O)(=O)c1cccc(-c2ccc3ncc(N4CCOCC4)nc3c2)c1 [GSK1535721] | 34
CCCCCc1nc2c(N)ncnc2n1CCCCC [SKF-97255] | 0
Cc1cn2c(=O)cc(N3CCOCC3)nc2n1Cc1cccc(Cl)c1Cl [GSK2334006] | 0
O=C(Nc1n[nH]c2cc(-c3cccc(F)c3)ccc12)C1CC1 [SB-735464] | 72
Fc1ccc(-c2ncn(CCCN3CCOCC3)c2-c2ccccn2)cc1 [SB-211742] | 0

// %Inh lookup, key: Cn1cc(-c2ccc3c(c2)CCN3C(=O)Cc2ccccc2Cl)c2c(N)ncnc21 [GSK2608885] 69

// %Inh lookup, key: Nc1nccc(-c2c(-c3ccc(F)cc3)ncn2C2CCN(CC(F)(F)F)CC2)n1 [SB-236560] 6

// %Inh lookup, key: Cc1cccc(-c2nc(-c3ccc(S(C)(=O)=O)cc3)sc2-c2ccncc2)c1 36

====

This section presents molecules with their documented %Inh values.
System: EPHB6
DETAILS: concentration: 1 μM, replicates: in singlicate; n = 1
Kindly answer with a numeric value in %, unit omitted.

# count of solved cases: 5
NS(=O)(=O)CCc1cccc(Nc2nccc(-c3c(-c4cccc(NC(=O)c5c(F)cccc5F)c4)nn4ccccc34)n2)c1 | 97.1
[2H]C([2H])(c1cccc(C(F)(F)F)c1C)n1ccn2c(=O)nc(N3CCOCC3)cc12 | 11
COc1cc2c(cc1OCCN1CCN(C)CC1)ncc1c3ccc(C#N)cc3[nH]c21 | 53
O=C(NCCNc1ccnc(Nc2ccc(F)cc2)n1)c1cc2ccccc2s1 | 11
Cc1nnc(-c2ccc(C)c(-c3ccc(C(=O)Nc4ccc(NS(C)(=O)=O)cc4)cc3)c2)o1 | 10

What %Inh appears in the records for this molecule with EPHB6? CCn1cnc2c(N)ncnc21 25

What %Inh appears in the records for this molecule with EPHB6? O=c1cc(N2CCOCC2)nc2n(Cc3cccc4ccccc34)ccn12 12

What %Inh appears in the records for this molecule with EPHB6? N#Cc1ccc(-c2cc(-c3c[nH]nc3-c3ccccn3)ccn2)cc1 2

====

System: PDGFRB
DETAILS: concentration: 1 μM, replicates: in singlicate; n = 1
This section presents compounds with their documented %Inh values.
Kindly answer with a numeric value in %, unit omitted.

# count of solved cases: 5
COc1ccc(S(=O)(=O)NC2CCN(c3cc(C)nc(Nc4cccc(C#N)c4)n3)CC2)cc1.O=C(O)C(F)(F)F | 12
CC(=O)Nc1ccc(COc2ccc(Nc3ccnc4cc(-c5ccccn5)ccc34)cc2)cc1.Cl | 100
Cl.Oc1cccc(Nc2ccnc3cc(-c4ccncc4)ccc23)c1 | 99.5
COc1cc2c(cc1OC[C@@H](O)CO)ncc1c3ccc(C#N)cc3[nH]c21 | 91.4
N#Cc1c(N2CCOCC2)sc(-c2ccn[nH]2)c1-c1ccc(Cl)cc1 | 12

// %Inh lookup, key: COc1ccc(Nc2nccc(N3CCC(NC(=O)Nc4cccc(C(C)=O)c4)C3)n2)cc1 (stereo not drawn) 38

// %Inh lookup, key: Cc1nnc(-c2ccc3ncc(-c4ccc(S(C)=O)cc4)n3c2)o1 (stereo not drawn) 80

// %Inh lookup, key: COc1ccc(Nc2ncc(C#N)c(Nc3ccccc3C(N)=O)n2)cc1N1CCN(C)CC1.Cl 100

// %Inh lookup, key: O=C(Nc1cccc(-c2nn3ncccc3c2-c2ccnc(Nc3cccc(C(F)(F)F)c3)n2)c1)c1c(F)cccc1F 99.7

// %Inh lookup, key: N#Cc1ccc(-c2cc(-c3c[nH]nc3-c3ccccn3)ccn2)cc1 7

// %Inh lookup, key: Cl.Nc1ncnc2occ(-c3ccc(NC(=O)Nc4cc(C(F)(F)F)ccc4F)cc3)c12 100

// %Inh lookup, key: Nc1nc(-c2ccc3c(N)n[nH]c3c2)cc(N2CCCC2)n1 18

// %Inh lookup, key: Cc1cn2c(=O)cc(N3CCOCC3)nc2n1Cc1cccc(Cl)c1Cl 31

// %Inh lookup, key: COCCNC(=O)c1ccc(-c2cc(C(=O)NC3CC3)cc(F)c2C)cc1 51

// %Inh lookup, key: NS(=O)(=O)c1cccc(-c2ccc3nccc(-c4cccc(S(N)(=O)=O)c4)c3c2)c1 1

// %Inh lookup, key: COc1cc2c(cc1OCCN1CCN(C)CC1)ncc1c3ccc(C#N)cc3[nH]c21 94.7

// %Inh lookup, key: Cn1cc(-c2ccc3c(c2)CCN3C(=O)Cc2ccccc2Cl)c2c(N)ncnc21 99.9

// %Inh lookup, key: O=C(Nc1n[nH]c2cc(-c3cccc(F)c3)ccc12)C1CC1 67

====

System: PRKX
DETAILS: concentration: 1 μM, replicates: in singlicate; n = 1
Decide using %Inh: a value greater than or equal to 10% is T, a smaller one is F.

Example entries begin here.
Cc1cn2c(=O)cc(N3CCOCC3)nc2n1Cc1cccc(Cl)c1Cl | T
NS(=O)(=O)CCc1cccc(Nc2nccc(-c3c(-c4cccc(NC(=O)c5c(F)cccc5F)c4)nn4ccccc34)n2)c1 | T
O=C1NC(=O)C(N2CCc3ccccc32)=C1c1cccc(Cl)c1 | F
CC(C)(C)n1cnc2c(N)ncnc21 | F
COc1ccc(Nc2nccc(N3CCC(NC(=O)Nc4cccc(C(C)=O)c4)C3)n2)cc1 (stereo not drawn) | T
O=c1cc(N2CCOCC2)nc2n(Cc3cccc(C(F)(F)F)c3)ccn12 | F
Cn1ccc2ncnc(Oc3ccc(NC(=O)Nc4ccncc4)c(Cl)c3)c21 | F
Cc1c(Cn2c(C)nn3c(=O)cc(N4CCOC(C)C4)nc23)cccc1C(F)(F)F (stereo not drawn) | F

Determine whether this molecule has %Inh no lower than 10%: Cc1c2ccc(N(C)c3ccnc(Nc4cccc(S(N)(=O)=O)c4)n3)cc2nn1Cc1ccccc1.Cl.Cl F

Determine whether this molecule has %Inh no lower than 10%: O=c1cc(N2CCOCC2)nc2n(Cc3cccc(Cl)c3Cl)c(C3CC3)nn12 F

Determine whether this molecule has %Inh no lower than 10%: CCn1cnc2c(N)ncnc21 F

Determine whether this molecule has %Inh no lower than 10%: COc1cc2c(cc1OCCN1CCN(C)CC1)ncc1c3ccc(C#N)cc3[nH]c21 T

Determine whether this molecule has %Inh no lower than 10%: NS(=O)(=O)c1cccc(-c2ccc3nccc(-c4cccc(S(N)(=O)=O)c4)c3c2)c1 F

Determine whether this molecule has %Inh no lower than 10%: Cc1nnc(-c2ccc(C)c(-c3ccc(C(=O)Nc4ccc(NS(C)(=O)=O)cc4)cc3)c2)o1 F

Determine whether this molecule has %Inh no lower than 10%: Fc1ccc(-c2ncn(CCCN3CCOCC3)c2-c2cccnc2)cc1 F

Determine whether this molecule has %Inh no lower than 10%: Cc1cccc(Cn2ccn3c(=O)cc(N4CCOCC4)nc23)c1 T

Determine whether this molecule has %Inh no lower than 10%: O=C(Nc1cccc(-c2nn3ncccc3c2-c2ccnc(Nc3cccc(C(F)(F)F)c3)n2)c1)c1c(F)cccc1F F

Determine whether this molecule has %Inh no lower than 10%: [2H]C([2H])(c1cccc(C(F)(F)F)c1C)n1ccn2c(=O)nc(N3CCOCC3)cc12 T
